Provenance of the data: patent US20240101668A1

biological target: T1, huCD33-G69 stably expressed on Jurkat cells (human, UniProt P20138 18-364); experiment: FACS on cells;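 also: fixed Jurkat lines probed with myc-tagged scFv periplasmic extracts, anti-myc PE flow cytometry, PE MFI fold binned − <2, + 2–10, ++ 10–30, +++ >30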
T1 construct: whole, on cells; >200,000 receptors per cell; also called CD33 Mutant; CD33 R69G
T1 sequence (P20138 18-364 R69G): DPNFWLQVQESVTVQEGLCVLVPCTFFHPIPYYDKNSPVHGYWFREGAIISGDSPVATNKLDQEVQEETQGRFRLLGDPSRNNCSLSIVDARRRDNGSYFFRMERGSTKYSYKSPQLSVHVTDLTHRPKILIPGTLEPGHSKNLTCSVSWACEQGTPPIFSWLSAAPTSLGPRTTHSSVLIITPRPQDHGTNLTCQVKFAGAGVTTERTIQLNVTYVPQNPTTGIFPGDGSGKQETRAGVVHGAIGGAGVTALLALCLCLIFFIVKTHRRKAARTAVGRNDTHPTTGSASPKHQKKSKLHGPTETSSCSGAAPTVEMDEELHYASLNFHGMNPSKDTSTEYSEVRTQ
valueKind: FACS geometric mean fold change over Jurkat parental

binder	experimentalResult
Polypeptide No. 91 (scFv, V domains shown, scFv) VH: QVQLVQSGAEVKKPGASVKVSCKASGGTFSSYAISWVRQAPGQGLEWMGWMNPNSGNTGYAQKFQGRVTMTRDTSTSTVYMELSSLRSEDTAVYYCAREDYYDSSGNFDYWGQGTLVTVSS VL: DIQMTQSPSSLSASVGDRVTITCQASHDINIHLNWYQQKPGKAPKLLIYDASNLETGVPSRFSGSGSGTDFTLTISSLQPEDFATYYCQQAYSLPWTFGQGTKVEIKR	10 to 30 fold
Polypeptide No. 114 (scFv, V domains shown, scFv) VH: QVQLVQSGAEVKKPGASVKVSCKASGGTFSKYAISWVRQAPGQGLEWMGWMNPNSGNTGYAQKFQGRVTMTRDTSTSTVYMELSSLRSEDTAVYYCARDQGLTGYFDLWGRGTLVTVSS VL: DIQMTQSPSSLSASVGDRVTITCRASQSIGNWLAWYQQKPGKAPKLLIYKASSLESGVPSRFSGSGSGTDFTLTISSLQPEDFATYYCQQSYNTPPTFGPGTKVDIKR	10 to 30 fold
Polypeptide No. 94 (scFv, V domains shown, scFv) VH: QVQLVQSGAEVKKPGASVKVSCKASGYTFTTYDINWVRQAPGQGLEWMGWISGYNGNTGYAQKFQGRVTMTRDTSTSTVYMELSSLRSEDTAVYYCAKDMGYGDYPDAFDIWGQGTMVTVSS VL: DIVMTQSPLSLPVTPGEPASISCRSSQSLLHSNGYNYLDWYLQKPGQSPQLLIYAASTLQSGVPDRFSGSGSGTDFTLKISRVEAEDVGVYYCMQALQIPITFGQGTKVEIKR	10 to 30 fold
